Taken from ChEMBL document CHEMBL1142709.

assay.comment: Area under concentration time curve in mice following oral administration of an aqueous solution of the bis-mesylate salt of the compound
Type: ADME
conditions: mouse, in vivo
readout.type: AUC (µg·h/mL)
Express it in µg·h/mL; write the number only.

Return the recorded AUC value; entry: CCS(=O)(=O)c1ccc(OC)c(Nc2ncc(-c3cccc(-c4ccccn4)c3)o2)c1
102

====

assay.comment: Half life in dogs dosed at 1 mg/kg iv in 40% […] and 1 mg/kg po in 0.5% HPMC w/0.1%Tween 80 (n=2)
Format: ADME, organism-based, Canis lupus familiaris
conditions: dog, in vivo
readout.type: half-life (h)
Express it in h; write the number only.

Return the recorded half-life value; entry: CCS(=O)(=O)c1ccc(OC)c(Nc2ncc(-c3cccc(-c4ccccn4)c3)o2)c1.CS(=O)(=O)O
3.5
